B1: LOXL2 (parent)
chain: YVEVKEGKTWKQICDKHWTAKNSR

variants of: B1; experiment: protein stability index of a GFP-peptide fusion (GPS, HEK-293T) (PSI 1-6); higher = more stable; details: c terminus: a fixed tail appended;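 also: lentivirally expressed fusions sorted by FACS into six bins by GFP to DsRed ratio, PSI derived from sequencing read proportions per bin multiplied by bin number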
In this section we review reported protein stability index values for a set of variants.
Lab note: record just the number, no unit beside it.

Completed entries (count: 3):
[[record]]
mutation = "C14W"
observed = 4.18

[[record]]
mutation = "S23K"
observed = 2.88

[[record]]
mutation = "K11L"
observed = 2.53


## Input Look at this variant and give its reported protein stability index. "I13L"
## Output 1.4

## Input Cool, now "K21G"
## Output 2.14

## Input Cool, now "V2G"
## Output 1.98

## Input Cool, now "E6Y"
## Output 2.65

## Input Cool, now "N22Y"
## Output 2.23

## Input Cool, now "W18R"
## Output 1.5

## Input Cool, now "V2S"
## Output 2.86

## Input Cool, now "K5M"
## Output 2.33

## Input Cool, now "G7Q"
## Output 2.42

## Input Cool, now "R24T"
## Output 3.49

## Input Cool, now "N22D"
## Output 2.42

All values here come from the supplement of paper PMC10567573.
